Reference source: patent US20200352918A1

Tested on: iFA phenotype of mesenchymal-like cells on 13 kPa hydrogels
Test Name: iFA-prevention phenotypic high-content drug screen (iFA model)
Type: cell-based, human
Protocol Conditions: assay repeated with compound sourced commercially or from additional library materials
Where a name gives a salt, the structure may show the parent alone.

Compound	Efficacy in secondary screen
CCCNC(=O)NS(=O)(=O)c1ccc(Cl)cc1 [Chlorpropamide]	+
CC(NC(C)(C)C)C(=O)c1cccc(Cl)c1 (stereo not shown) [Bupropion hydrochloride]	+
O=P1(N(CCCl)CCCl)NCCCO1 (stereo not shown) [Cyclophosphamide]	+
N#CC(C#N)=C(N)/C(C#N)=C/c1cc(O)c(O)c(O)c1	+

###

Tested on: iFA phenotype of mesenchymal-like cells on 13 kPa hydrogels
Test Name: iFA-prevention phenotypic high-content drug screen (iFA model)
Format: cell-based, human
Protocol Conditions: Homo sapiens; FIG. 16B; read-out: IC50 (dose response, iFA phenotype)
pIC50: −log10 of the molar value.
Test Readout: pIC50

> print(dat)
                                   compound  value.observed
1  Cc1c(C(=O)Nc2nc3ccccc3s2)sc2nc3cc4c(cc3cc12)OCO4 [AA5]            6.05
